molecular target: Rho-A (Homo sapiens (Human)); assay: Rho inhibition assay (labeled GTP); assay type: binding; details: read-out: Rho-A % Inh.
Sequence (P61586 whole entry): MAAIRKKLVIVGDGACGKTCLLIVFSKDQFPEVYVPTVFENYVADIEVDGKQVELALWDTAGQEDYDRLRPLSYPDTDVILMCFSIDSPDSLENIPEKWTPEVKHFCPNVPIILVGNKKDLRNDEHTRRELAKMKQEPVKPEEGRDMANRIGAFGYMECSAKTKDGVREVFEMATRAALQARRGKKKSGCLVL
Field: inhibition at 20 µM. Provide a value for each of the molecules that follow.

Lookup: # query: inhibition at 20 µM of entry COCCNc1nc(-c2nccn2C)nc2sc(-c3ccccc3)c(-c3ccccn3)c12 [drawing 3940]
Found: 51 to 75%

Lookup: Also check COC(=O)c1cc2nc(-c3ccccn3)nc(O)c2s1 [drawing 3779]
Found: 76 to 100%

Lookup: Also check Oc1nc(-c2ccccn2)nc2c(C3CCCCC3)csc12 [drawing 3830]
Found: 51 to 75%

Lookup: Also check Oc1nc(-c2ccccn2)nc2c(-c3ccccc3F)csc12 [drawing 3740]
Found: 76 to 100%

Lookup: Also check COc1ccc(C2CN(C(=O)c3csc4c(O)nc(-c5ccccn5)nc34)CCO2)cc1 (stereo not drawn) [drawing 3657]
Found: 25 to 50%

Lookup: Also check Oc1nc(-c2ccccn2)nc2c(-c3cc(Cl)cc(Cl)c3)csc12 [drawing 3720]
Found: 51 to 75%

Lookup: Also check Oc1nc(-c2ccccn2)nc2c(-c3ccccc3)csc12 [drawing 3625]
Found: 51 to 75%

Lookup: Also check COc1ncc(CCNC(=O)c2csc3nc(-c4ccccn4)nc(N4CCOCC4)c23)cn1 [drawing 3637]
Found: 51 to 75%

Lookup: Also check COc1ccnc(-c2nc(O)c3c(Br)csc3n2)c1 [drawing 3632]
Found: 25 to 50%

Lookup: Also check CC(CO)Nc1nc(-c2nccn2C)nc2sc(-c3ccccc3)c(-c3ccccc3)c12 (stereo not drawn) [drawing 3896]
Found: 1 to 25%

Lookup: Also check Oc1nc(-c2ccccn2)nc2c(-c3cc(F)ccc3OC(F)F)csc12 [drawing 3732]
Found: 25 to 50%

Lookup: Also check O=C(c1csc2c(O)nc(-c3ccccn3)nc12)N1CCOC(c2ccccc2Cl)C1 (stereo not drawn) [drawing 3658]
Found: 76 to 100%

Lookup: Also check CC(C)c1nn(C)cc1-c1csc2c(O)nc(-c3ccccn3)nc12 [drawing 3820]
Found: 51 to 75%

Lookup: Also check Oc1nc(-c2ccccn2)nc2c(Br)c(-c3ccccc3)sc12 [drawing 3871]
Found: 1 to 25%

Lookup: Also check Nc1nc(-c2ccccn2)nc2c(Br)csc12 [drawing 3764]
Found: 51 to 75%

Lookup: Also check Cn1ccnc1-c1nc(O)c2sc(-c3ccccc3)c(-c3cccc(C(F)(F)F)c3)c2n1 [drawing 3910]
Found: 0%

Lookup: Also check COCC(C)Nc1nc(-c2nccn2C)nc2sc(-c3ccccc3)c(-c3ccccc3)c12 (stereo not drawn) [drawing 3895]
Found: 1 to 25%

Lookup: Also check COCCNc1nc(-c2nccn2C)nc2sc(-c3ccc(OC)cc3)c(-c3ccccc3)c12 [drawing 3915]
Found: 1 to 25%
